- recordedConditions: in ethanol, 298.15 K

{"substanceSmiles": "O=C(O)/C=C/c1cccc(O)c1", "solubility (mole fraction)": 0.0632}

----------
- recordedConditions: in isobutanol, 303.15 K
quantity: solubility (mole fraction)

{"substanceSmiles": "O=C(O)/C=C/c1cccc(O)c1", "observedValue": 0.0397}

----------
- recordedConditions: in methanol, 333.15 K

{"substanceSmiles": "O=C(O)/C=C/c1cccc(O)c1", "solubility (mole fraction)": 0.113}

----------
- recordedConditions: in methanol, 303.15 K

{"substanceSmiles": "O=C(O)/C=C/c1cccc(O)c1", "solubility (mole fraction)": 0.0611}

----------
- recordedConditions: in n-butanol, 323.15 K

{"substanceSmiles": "O=C(O)/C=C/c1cccc(O)c1", "solubility (mole fraction)": 0.0806}

----------
- recordedConditions: in isopropanol, 298.15 K

{"substanceSmiles": "O=C(O)/C=C/c1cccc(O)c1", "solubility (mole fraction)": 0.0662}

----------
- recordedConditions: in isobutanol, 293.15 K
quantity: solubility (mole fraction)

{"substanceSmiles": "O=C(O)/C=C/c1cccc(O)c1", "quantity": "solubility (mole fraction)", "observedValue": 0.0317}

----------
- recordedConditions: in methanol, 318.15 K

{"substanceSmiles": "O=C(O)/C=C/c1cccc(O)c1", "solubility (mole fraction)": 0.0801}

----------
- recordedConditions: in ethyl acetate, 333.15 K
quantity: solubility (mole fraction)

{"substanceSmiles": "O=C(O)/C=C/c1cccc(O)c1", "quantity": "solubility (mole fraction)", "observedValue": 0.0489}

----------
- recordedConditions: in isobutanol, 298.15 K

{"substanceSmiles": "O=C(O)/C=C/c1cccc(O)c1", "solubility (mole fraction)": 0.0351}

----------
- recordedConditions: in isobutanol, 313.15 K

{"substanceSmiles": "O=C(O)/C=C/c1cccc(O)c1", "solubility (mole fraction)": 0.0502}

----------
- recordedConditions: in methyl acetate, 318.15 K

{"substanceSmiles": "O=C(O)/C=C/c1cccc(O)c1", "solubility (mole fraction)": 0.0358}

----------
- recordedConditions: in n-propyl acetate, 303.15 K

{"substanceSmiles": "O=C(O)/C=C/c1cccc(O)c1", "solubility (mole fraction)": 0.0212}

----------
- recordedConditions: in methyl acetate, 298.15 K
quantity: solubility (mole fraction)

{"substanceSmiles": "O=C(O)/C=C/c1cccc(O)c1", "observedValue": 0.0212}

----------
- recordedConditions: in ethyl acetate, 293.15 K
quantity: solubility (mole fraction)

{"substanceSmiles": "O=C(O)/C=C/c1cccc(O)c1", "quantity": "solubility (mole fraction)", "observedValue": 0.0177}

----------
- recordedConditions: in isopropanol, 318.15 K

{"substanceSmiles": "O=C(O)/C=C/c1cccc(O)c1", "solubility (mole fraction)": 0.0933}

----------
- recordedConditions: in isobutanol, 328.15 K

{"substanceSmiles": "O=C(O)/C=C/c1cccc(O)c1", "solubility (mole fraction)": 0.0706}

----------
- recordedConditions: in n-propanol, 323.15 K
quantity: solubility (mole fraction)

{"substanceSmiles": "O=C(O)/C=C/c1cccc(O)c1", "quantity": "solubility (mole fraction)", "observedValue": 0.0842}

----------
- recordedConditions: in n-propanol, 313.15 K

{"substanceSmiles": "O=C(O)/C=C/c1cccc(O)c1", "solubility (mole fraction)": 0.0701}

----------
- recordedConditions: in methanol, 323.15 K

{"substanceSmiles": "O=C(O)/C=C/c1cccc(O)c1", "solubility (mole fraction)": 0.0887}

----------
- recordedConditions: in n-propyl acetate, 298.15 K

{"substanceSmiles": "O=C(O)/C=C/c1cccc(O)c1", "solubility (mole fraction)": 0.0184}
